Attribution: ChEMBL document CHEMBL1136676

# Species on record: Homo sapiens
# assay.details: Inhibition of protein phosphatase (PP2A) at 10 uM using fluorescein diphosphate
property.measured: inhibition (%)

>>> observed("CC(C)(O)[C@H]1CC[C@](C)([C@@H](O)CC[C@@](O)(CO)C2=CC[C@H]3O[C@@H]([C@]4(C)CC[C@@H](Br)C(C)(C)O4)CC[C@]3(C)O2)O1")
31.8

I = C=C(CC[C@H](O)[C@@]1(C)CC[C@H](C(C)(C)O)O1)[C@H]1CC[C@H]2O[C@@H]([C@]3(C)CCC(=O)O3)CC[C@]2(C)O1
II = C=C([C@@H](O)C[C@H](O)[C@@]1(C)CC[C@H](C(C)(C)O)O1)[C@H]1CC[C@H]2O[C@@H]([C@]3(C)CC[C@@H](Br)C(C)(C)O3)CC[C@]2(C)O1
// task: argmin of inhibition over [ I , II ] Response format: the label of the selected entry.
I
(I: 40.1%, II: 93.4%)
